experimentalTarget: Prolyl endopeptidase FAP (Homo sapiens)
Sequence (Q12884 whole entry): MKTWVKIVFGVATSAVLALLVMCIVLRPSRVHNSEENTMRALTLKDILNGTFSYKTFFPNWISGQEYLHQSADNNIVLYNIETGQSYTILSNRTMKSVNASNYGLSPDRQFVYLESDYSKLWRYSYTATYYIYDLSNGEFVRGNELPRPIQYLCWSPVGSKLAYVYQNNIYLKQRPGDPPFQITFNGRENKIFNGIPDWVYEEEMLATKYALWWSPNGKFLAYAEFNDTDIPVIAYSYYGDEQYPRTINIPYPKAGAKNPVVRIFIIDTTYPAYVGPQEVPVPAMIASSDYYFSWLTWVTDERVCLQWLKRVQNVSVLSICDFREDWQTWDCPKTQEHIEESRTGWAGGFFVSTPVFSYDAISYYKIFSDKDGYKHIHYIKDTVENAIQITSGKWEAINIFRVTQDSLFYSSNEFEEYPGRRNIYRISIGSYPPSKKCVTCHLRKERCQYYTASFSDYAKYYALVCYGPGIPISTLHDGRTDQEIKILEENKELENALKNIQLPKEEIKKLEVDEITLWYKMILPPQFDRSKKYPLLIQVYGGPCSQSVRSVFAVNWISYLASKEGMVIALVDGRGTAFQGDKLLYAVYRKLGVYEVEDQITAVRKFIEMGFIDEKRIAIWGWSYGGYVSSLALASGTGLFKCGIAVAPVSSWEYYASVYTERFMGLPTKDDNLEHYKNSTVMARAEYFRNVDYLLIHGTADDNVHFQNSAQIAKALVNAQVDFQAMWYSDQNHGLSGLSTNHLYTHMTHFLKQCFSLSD
protocolNotes: Selectivity interaction (Serine protease panel) EUB0000735a FAP
pIC50: −log10 of the molar value.
quantityMeasured: pIC50

Input: Value lookup for pIC50; key = CC(=O)C1=C(C)N(c2cccc(C(F)(F)F)c2)C(=O)N[C@@H]1c1ccc(C#N)nc1
Output: < 4.52

====

experimentalTarget: Histone-lysine N-methyltransferase EZH1 (Homo sapiens, UniProt Q92800)
Sequence (Q92800 whole entry): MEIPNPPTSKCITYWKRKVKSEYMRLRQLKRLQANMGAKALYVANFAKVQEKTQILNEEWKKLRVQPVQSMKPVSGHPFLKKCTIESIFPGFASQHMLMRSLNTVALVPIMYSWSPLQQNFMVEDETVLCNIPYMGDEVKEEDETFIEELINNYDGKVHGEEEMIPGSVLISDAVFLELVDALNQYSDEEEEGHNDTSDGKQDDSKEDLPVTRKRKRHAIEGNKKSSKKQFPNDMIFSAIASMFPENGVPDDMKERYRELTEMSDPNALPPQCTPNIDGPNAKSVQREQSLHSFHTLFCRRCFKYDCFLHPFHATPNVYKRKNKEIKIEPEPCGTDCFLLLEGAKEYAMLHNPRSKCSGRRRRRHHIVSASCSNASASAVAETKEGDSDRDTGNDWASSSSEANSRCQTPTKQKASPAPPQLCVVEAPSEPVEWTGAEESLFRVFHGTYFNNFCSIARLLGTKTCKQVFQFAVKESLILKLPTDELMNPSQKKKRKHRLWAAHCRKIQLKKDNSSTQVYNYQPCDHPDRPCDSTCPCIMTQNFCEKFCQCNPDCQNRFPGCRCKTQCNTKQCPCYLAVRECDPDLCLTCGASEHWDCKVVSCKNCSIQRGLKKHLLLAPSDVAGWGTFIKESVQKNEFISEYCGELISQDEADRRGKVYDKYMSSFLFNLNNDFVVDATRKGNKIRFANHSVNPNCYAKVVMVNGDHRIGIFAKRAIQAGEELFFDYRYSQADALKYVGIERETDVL
protocolNotes: Selectivity interaction (Methyltransferase panel (HotSpot screen, Reaction Biology, radioisotope-based filter binding assays)) EUB0000215b EZH1
quantityMeasured: IC50 (nM)
Answers are plain numbers, in nM.

Input: Short answer please: IC50, Histone-lysine N-methyltransferase EZH1 (Homo sapiens, UniProt Q92800), entry CCCc1cc(C)[nH]c(=O)c1CNC(=O)c1cc(-c2ccnc(N3CCN(C)CC3)c2)cc2c1cnn2C(C)C
Output: 240

====

experimentalTarget: UniProt P09237
Sequence (P09237 whole entry): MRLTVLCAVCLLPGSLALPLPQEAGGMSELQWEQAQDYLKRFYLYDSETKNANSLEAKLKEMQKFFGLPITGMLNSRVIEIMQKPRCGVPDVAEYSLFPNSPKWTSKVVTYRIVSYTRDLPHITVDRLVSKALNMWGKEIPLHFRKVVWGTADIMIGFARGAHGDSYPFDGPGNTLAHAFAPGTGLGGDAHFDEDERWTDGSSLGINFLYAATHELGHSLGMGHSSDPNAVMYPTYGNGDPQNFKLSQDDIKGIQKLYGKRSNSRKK
protocolNotes: Selectivity interaction (MMPs panel (Panlabs panel, Bayer)) EUB0000725a MMP7
pIC50: −log10 of the molar value.
quantityMeasured: pIC50

Input: Value lookup for pIC50; key = O=C(O)[C@@H]1[C@@H](Cn2nnc3ccccc3c2=O)CC[C@H]1C(=O)c1ccc(OCCC2CCOCC2)cc1 [BAY-694]
Output: < 5.00

====

experimentalTarget: YEATS domain-containing protein 2 (Homo sapiens, UniProt Q9ULM3)
Sequence (Q9ULM3 whole entry): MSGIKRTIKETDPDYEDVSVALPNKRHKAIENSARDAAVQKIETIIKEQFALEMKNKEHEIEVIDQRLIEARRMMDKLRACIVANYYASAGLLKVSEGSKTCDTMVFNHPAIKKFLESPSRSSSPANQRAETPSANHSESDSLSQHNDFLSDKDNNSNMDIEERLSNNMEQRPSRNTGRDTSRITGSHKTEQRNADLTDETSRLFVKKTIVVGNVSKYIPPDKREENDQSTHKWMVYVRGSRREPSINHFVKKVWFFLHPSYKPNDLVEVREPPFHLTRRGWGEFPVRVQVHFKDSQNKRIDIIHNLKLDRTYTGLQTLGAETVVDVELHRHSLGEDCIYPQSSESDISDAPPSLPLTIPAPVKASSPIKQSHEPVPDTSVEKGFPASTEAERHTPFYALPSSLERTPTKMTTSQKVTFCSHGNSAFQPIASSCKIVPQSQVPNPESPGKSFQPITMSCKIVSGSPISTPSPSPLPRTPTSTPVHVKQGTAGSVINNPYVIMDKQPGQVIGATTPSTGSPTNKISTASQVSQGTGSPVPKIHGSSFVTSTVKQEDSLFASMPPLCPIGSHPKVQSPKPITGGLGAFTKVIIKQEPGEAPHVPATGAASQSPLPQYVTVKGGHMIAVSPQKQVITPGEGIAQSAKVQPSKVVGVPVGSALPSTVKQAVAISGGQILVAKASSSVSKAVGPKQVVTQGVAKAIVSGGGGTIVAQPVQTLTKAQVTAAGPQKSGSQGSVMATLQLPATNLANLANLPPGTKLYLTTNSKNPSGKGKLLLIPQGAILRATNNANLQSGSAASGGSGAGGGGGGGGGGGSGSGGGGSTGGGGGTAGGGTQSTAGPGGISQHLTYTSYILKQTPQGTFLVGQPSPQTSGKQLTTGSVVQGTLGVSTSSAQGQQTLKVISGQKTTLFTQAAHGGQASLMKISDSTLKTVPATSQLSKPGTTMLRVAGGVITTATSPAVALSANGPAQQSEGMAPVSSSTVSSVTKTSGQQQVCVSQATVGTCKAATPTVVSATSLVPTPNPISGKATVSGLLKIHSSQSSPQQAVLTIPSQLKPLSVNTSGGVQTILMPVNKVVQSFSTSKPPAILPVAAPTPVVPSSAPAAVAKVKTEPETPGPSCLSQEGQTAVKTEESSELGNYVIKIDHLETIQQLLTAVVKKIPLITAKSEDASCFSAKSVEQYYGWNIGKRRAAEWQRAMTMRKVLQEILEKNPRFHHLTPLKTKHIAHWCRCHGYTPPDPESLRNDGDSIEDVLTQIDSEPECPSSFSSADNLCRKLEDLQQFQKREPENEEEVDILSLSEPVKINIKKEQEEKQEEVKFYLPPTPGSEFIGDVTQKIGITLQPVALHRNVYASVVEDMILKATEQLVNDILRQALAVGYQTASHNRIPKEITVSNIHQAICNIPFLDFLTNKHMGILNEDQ
protocolNotes: Selectivity interaction (Bromodomain panel (TR-FRET assay)) EUB0000283b YEATS2
quantityMeasured: IC50

Input: Value lookup for IC50; key = C[C@H]1CCCN1Cc1nc2cc(NC(=O)c3ccc4cnccc4c3)ccc2[nH]1
Output: > 20 µM
